- PROTOCOL_SUMMARY: Measurement of Log P values by HPLC on reversed phase columns (EEC directive 79/831 Annex V.A8)
- Type: physicochemical
- COND: Table 1, compounds of formula (I); method [a]: LC-UV, acidic range, 0.1% formic acid in water and acetonitrile
REPORTED_PROPERTY: chromatographic logP
// response body must contain only the number

{"columns": ["COMPOUND", "chromatographic logP"],
 "data": [
  ["Cc1ccc([C@H]2CON=C(c3c(Sc4ccc(F)c(F)c4)nnc(C)c3C)N2)s1 (racemic) [Compound I-085]", 2.99],
  ["Cc1ccc([C@@H]2CON=C(c3c(Sc4ccc(C(C)(C)C)cc4)nnc(C)c3C)N2)s1 (racemic) [Compound I-065]", 3.95],
  ["Cc1ccc([C@@H]2CON=C(c3c(Sc4ccc(F)cc4)nnc(C)c3C)N2)s1 (racemic) [Compound I-063]", 2.82],
  ["Cc1cc([C@H]2CON=C(c3c(Sc4ccc(C)c(C)c4)nnc(C)c3C)N2)c(C)s1 (racemic) [Compound I-111]", 3.64]
]}

Could you now consider this next compound?
Param item = Cc1ccc([C@H]2CON=C(c3c(Sc4cc(Cl)ccc4Cl)nnc4ccccc34)N2)s1 (racemic) [Compound I-096] ; retrieve measured chromatographic logP. 3.88
